compounds and their reported IC50
study_target: Rac GTPase-activating protein 1 (Homo sapiens)
Sequence (Q9H0H5 whole entry): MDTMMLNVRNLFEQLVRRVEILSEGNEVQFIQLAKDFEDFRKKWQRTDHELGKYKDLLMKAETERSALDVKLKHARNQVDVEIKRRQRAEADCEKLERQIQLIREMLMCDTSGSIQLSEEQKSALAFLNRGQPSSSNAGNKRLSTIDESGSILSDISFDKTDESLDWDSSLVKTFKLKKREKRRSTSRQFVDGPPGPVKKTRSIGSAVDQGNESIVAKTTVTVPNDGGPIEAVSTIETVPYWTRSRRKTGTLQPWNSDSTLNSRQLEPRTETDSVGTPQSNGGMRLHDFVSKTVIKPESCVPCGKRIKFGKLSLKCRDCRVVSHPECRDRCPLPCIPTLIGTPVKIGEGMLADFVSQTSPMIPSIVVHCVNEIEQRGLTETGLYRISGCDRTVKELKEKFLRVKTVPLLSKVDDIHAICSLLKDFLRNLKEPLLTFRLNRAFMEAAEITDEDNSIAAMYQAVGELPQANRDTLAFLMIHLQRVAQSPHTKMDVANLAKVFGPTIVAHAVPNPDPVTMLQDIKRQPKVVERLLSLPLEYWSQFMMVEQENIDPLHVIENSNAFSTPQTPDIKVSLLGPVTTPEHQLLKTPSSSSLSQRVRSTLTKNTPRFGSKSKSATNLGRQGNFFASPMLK
procedure_details: blockers of MgcRacGAP-driven Rac1 GTP hydrolysis – biochemical, ADP Hunter fluorescence, primary and confirmatory, confirmation (AID 624330)
Type: functional
Activity calls are given as the source filed them.

mol_smiles=COc1cc(/C=C/C(=O)OCC(=O)Nc2ccc3c(c2)OCO3)ccc1O value_measured="48.2 µM (active)"
mol_smiles=CC(=O)N1CCN(c2ccc(N)cc2)CC1 value_measured="16.2 µM (active)"
mol_smiles=O=C1NN(c2ccccc2)C(=O)C1=Cc1ccccc1O value_measured="81.3 µM (active)"
mol_smiles=CSc1ccc(CN2CCC(C(=O)NCc3ccc(C)cc3)CC2)cc1 value_measured="108 µM (active)"
mol_smiles=CN(c1ccc(O)cc1)c1ccc([N+](=O)[O-])c2nonc12 value_measured="135 µM (active)"

Could you now consider this next compound?
Problem: Which IC50 is listed for "Cc1ccccc1OCCn1c(S)nc2c(N)ncnc21" ?
Solution: 41.6 µM (active)

* * *

study_target: UniProt:Q06710
Sequence (Q06710 whole entry): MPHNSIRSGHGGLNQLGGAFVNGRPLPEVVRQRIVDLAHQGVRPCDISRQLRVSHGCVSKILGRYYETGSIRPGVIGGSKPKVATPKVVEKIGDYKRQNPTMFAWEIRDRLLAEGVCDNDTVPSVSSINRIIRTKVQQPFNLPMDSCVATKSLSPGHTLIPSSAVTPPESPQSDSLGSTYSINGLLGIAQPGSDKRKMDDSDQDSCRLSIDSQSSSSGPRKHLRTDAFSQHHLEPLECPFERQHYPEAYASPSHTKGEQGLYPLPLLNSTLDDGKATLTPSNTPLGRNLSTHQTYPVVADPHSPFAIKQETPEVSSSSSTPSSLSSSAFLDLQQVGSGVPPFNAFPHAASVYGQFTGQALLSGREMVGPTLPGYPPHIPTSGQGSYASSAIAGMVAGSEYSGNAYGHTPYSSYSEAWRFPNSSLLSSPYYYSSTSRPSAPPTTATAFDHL
procedure_details: PAX8 transcriptional activity inhibition in RMG-I – RMG-I cells, luciferase, cherry-pick, dose response (AID 687027);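 also: luciferase reporter driven by Pax8 target thyroperoxidase promoter measured by SteadyGlo luminescence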
Type: functional, cell-based
The source made the active and inactive calls.
Listing of entries alongside the reported AC50.

Solved entries (count: 3):
mol_smiles=CCS(=O)(=O)c1ncc(Cl)c(C(=O)Nc2ccc(S(=O)(=O)N3CCC(C)CC3)cc2)n1 value_measured="3.45 µM (active)"
mol_smiles=C[C@H](CO)N1C[C@H](C)[C@H](CN(C)S(=O)(=O)c2ccc(Cl)cc2)OCCCC[C@H](C)Oc2ccc(NS(=O)(=O)c3ccc(Cl)cc3)cc2C1=O value_measured="5.86 µM (active)"
mol_smiles=CN(C)CCCN(C(=O)CCOc1ccccc1)c1nc2c(F)cccc2s1 value_measured="7.17 µM (active)"

Problem: State the recorded AC50 for this entry: "O=C(O)CCCN1C(=O)/C(=C\C(Cl)=C\c2ccccc2)SC1=S"
Solution: 2.03 µM (active)

Problem: GET /values?readout=AC50&item= "C[C@H](CO)N1C[C@H](C)[C@@H](CN(C)C(=O)Nc2cccc3ccccc23)OCCCC[C@H](C)Oc2ccc(NC(=O)c3ccncc3)cc2C1=O"
Solution: 3.61 µM (active)

Problem: What value of AC50 has been recorded for this entry: "C[C@@H]1CCCCO[C@H](CN(C)C(=O)C2CCCCC2)[C@@H](C)CN([C@@H](C)CO)C(=O)c2cc(NC(=O)Nc3ccc(F)cc3)ccc2O1"
Solution: 4.07 µM (active)

Problem: // lookup AC50 for "CCC[C@H](CN[C@@H](CNC)[C@H](C)CC)NCCc1cc(C(F)(F)F)cc(C(F)(F)F)c1"
Solution: 9.95 µM (active)

Problem: Which value of AC50 has been reported for "C[C@@H]1CCCCO[C@@H](CN(C)S(=O)(=O)c2ccc(F)cc2)[C@H](C)CN([C@H](C)CO)C(=O)c2cc(NS(=O)(=O)c3ccc(Cl)cc3)ccc2O1" in the records?
Solution: 5.05 µM (active)

Problem: Any idea what AC50 was measured for "COc1cc(/C=N/Nc2nc(Nc3ccc(C)cc3)nc(-n3nc(C)cc3C)n2)cc(OC)c1OC" ?
Solution: 6.57 µM (active)

* * *

study_target: ATP-dependent molecular chaperone HSP82 (Candida albicans (strain WO-1) (Yeast), UniProt C4YTQ8)
Sequence (C4YTQ8 whole entry): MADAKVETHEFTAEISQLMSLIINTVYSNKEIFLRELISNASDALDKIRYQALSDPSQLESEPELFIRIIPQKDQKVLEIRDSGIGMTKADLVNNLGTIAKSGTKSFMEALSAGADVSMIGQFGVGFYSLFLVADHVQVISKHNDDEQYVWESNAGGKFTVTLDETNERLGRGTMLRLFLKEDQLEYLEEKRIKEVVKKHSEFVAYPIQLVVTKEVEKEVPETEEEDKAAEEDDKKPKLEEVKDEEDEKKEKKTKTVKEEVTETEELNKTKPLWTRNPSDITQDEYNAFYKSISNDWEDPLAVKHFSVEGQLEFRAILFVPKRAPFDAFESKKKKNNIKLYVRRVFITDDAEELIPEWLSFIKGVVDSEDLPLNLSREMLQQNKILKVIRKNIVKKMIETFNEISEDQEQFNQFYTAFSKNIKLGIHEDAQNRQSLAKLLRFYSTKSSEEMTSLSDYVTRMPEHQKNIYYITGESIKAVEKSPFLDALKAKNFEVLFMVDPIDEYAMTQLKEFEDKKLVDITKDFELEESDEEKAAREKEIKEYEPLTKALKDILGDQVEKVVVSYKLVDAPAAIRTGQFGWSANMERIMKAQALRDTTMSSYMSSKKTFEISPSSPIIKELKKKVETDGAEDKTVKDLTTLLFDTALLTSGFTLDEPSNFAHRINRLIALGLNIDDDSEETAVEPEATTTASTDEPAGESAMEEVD
procedure_details: steroid-induced GRE reporter decrease in yeast – S. cerevisiae, luminescence, Hsp90 inhibitor project, dose response (AID 2400);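 also: beta-galactosidase luminescence from glucocorticoid response element reporter as proxy for Hsp90 function; inhibitor potency where signal loss means Hsp90 inhibition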
Assay type: functional, cell-based
The source made the active and inactive calls.
I would appreciate it if you answered using one of these outcomes: label 1 for active, label 0 for inactive

Solved entries:
compound=O=C(Nc1nnc(-c2ccco2)o1)c1ccc(Cl)cc1 label_value="label 0"
compound="Cc1cc(C(C#N)c2ccccc2F)n2ncnc2n1 (centres undefined)" label_value="label 0"
compound=O=C1NC(=O)/C(=C\c2ccc(Br)o2)S1 label_value="label 0"

Problem: Outcome logged for "N=C(Cc1ccc(Cl)c(Cl)c1)NOC(=O)c1cccs1" in this assay:
Solution: label 1
